Test: CCTE_Shafer_MEA_dev_firing_rate_mean: CCTE's Neural Network Formation Assay for Mean Firing Rate, Shafer Lab (AID 2284031);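 note: AUC of well mean spike rate recorded on DIV 5 7 9 and 12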
Active and inactive are the calls of the source. Rule for the calls: active = hit-call score of the fitted dose curve at least 0.9, where 1 is the maximum; inactive = score below 0.9.
// classify into 1 (yes) for active, 0 (no) for inactive

Examples from the recorded data:
| Test Smiles | Classification |
| --- | --- |
| c1ccc2c(c1)-c1cccc3c1c-2cc1ccccc13 | 0 (no) |
| NNC(=O)c1ccncc1 | 0 (no) |
| COc1cc2c(c(OC)c1OC)-c1ccc(OC)c(=O)cc1[C@@H](NC(C)=O)CC2 | 1 (yes) |
| O=C(Cl)C(F)(F)C(F)(F)C(F)(F)C(=O)Cl | 0 (no) |
| C[C@]12C=CC(=O)C=C1CC[C@H]1[C@@H]3C[C@@H](O)[C@](O)(C(=O)CO)[C@@]3(C)C[C@H](O)[C@@]12F | 0 (no) |
| OC(Cn1cncn1)(Cn1cncn1)c1ccc(F)cc1F | 0 (no) |
| FC(F)(F)C(F)(F)C(F)(F)C(F)(F)C(F)(F)C(F)(F)I | 0 (no) |
| Cn1cc[nH]c1=S | 0 (no) |
| FC(F)(F)COC(OCC(F)(F)F)OCC(F)(F)F | 0 (no) |

Enquiry: What did the test return for CCCC(CCC)C(=O)O ?
Return: 0 (no)

* * *

Read-out: Thyroid Hormone Responsive (THRSP), THRSP (gene 7069)
Test: LTEA_HepaRG_THRSP: Life Technologies and Expression Analysis (LTEA) Assay for Thyroid Hormone Responsive (THRSP) using HepaRG (AID 2283536)
Settings: mRNA level, 48 h; actives raise or lower the signal
Protocol: LTEA_HepaRG is a cell based, multiplexed-readout assay that uses HepaRG, a human liver cell line, with measurements taken at 48 hours after chemical dosing on a 96-well plate.LTEA_HepaRG_THRSP is one of 102 assay component(s) measured in the LTEA HepaRG cell culture assay. It is a marker of NR mediated metabolism.Data from the assay component LTEA_HepaRG_THRSP was analyzed into 1 endpoint. […]
Calls of active or inactive are those of the source. How the source made its calls: active means hit-call score of the fitted dose curve at least 0.9, where 1 is the maximum; inactive means score below 0.9.
Recorded Metric: AC50

| Test Smiles | Result |
| --- | --- |
| O=C(O)[C@H](O)[C@@H](O)C(=O)O | inactive |
| CCCCCOC(C)=O | inactive |
| CNC(C)=O | inactive |
| OCc1ccccc1 | inactive |
| CC(C)C(=O)Nc1ccc([N+](=O)[O-])c(C(F)(F)F)c1 | 10.9 µM (active) |
| O=S(=O)(O)c1ccc(N=Nc2c(O)ccc3cc(S(=O)(=O)O)ccc23)cc1 | inactive |
| COc1cc(C(C)C)c2c(c1)S(=O)(=O)N(COc1cc(=O)n3cccc(OCCN4CCCCC4)c3n1)C2=O | 20.8 µM (active) |

Lookup result for NNC(=O)c1ccncc1 ; measured AC50: inactive

* * *

Target: Hypoxia-inducible factor 1-alpha (Homo sapiens) (UniProt Q16665)
Sequence (Q16665 whole entry, looked up): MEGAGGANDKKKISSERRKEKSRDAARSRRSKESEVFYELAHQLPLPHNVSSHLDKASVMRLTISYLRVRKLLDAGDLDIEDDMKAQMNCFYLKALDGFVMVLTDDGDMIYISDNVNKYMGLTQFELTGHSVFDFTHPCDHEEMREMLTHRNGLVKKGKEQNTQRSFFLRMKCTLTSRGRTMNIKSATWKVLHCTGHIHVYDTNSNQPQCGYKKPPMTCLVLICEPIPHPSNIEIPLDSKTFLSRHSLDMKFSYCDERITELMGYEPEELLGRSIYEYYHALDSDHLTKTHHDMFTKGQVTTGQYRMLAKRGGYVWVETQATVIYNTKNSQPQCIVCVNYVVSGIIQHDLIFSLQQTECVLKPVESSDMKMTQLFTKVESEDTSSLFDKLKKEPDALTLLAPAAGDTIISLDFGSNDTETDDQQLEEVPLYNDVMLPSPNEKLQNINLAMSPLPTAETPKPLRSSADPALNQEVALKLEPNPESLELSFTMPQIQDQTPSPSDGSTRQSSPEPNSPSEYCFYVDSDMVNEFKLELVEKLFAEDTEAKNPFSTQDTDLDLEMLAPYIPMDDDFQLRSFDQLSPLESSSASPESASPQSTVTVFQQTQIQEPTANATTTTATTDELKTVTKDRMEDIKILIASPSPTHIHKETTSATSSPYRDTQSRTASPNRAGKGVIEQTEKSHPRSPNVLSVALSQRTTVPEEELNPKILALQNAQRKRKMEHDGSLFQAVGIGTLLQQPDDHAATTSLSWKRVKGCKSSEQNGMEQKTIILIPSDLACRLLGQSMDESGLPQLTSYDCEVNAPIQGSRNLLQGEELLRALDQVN
Assay: ATG_HIF1a_CIS: Attagene CIS-FACTORIAL HepG2 Assay for human Hypoxia Inducible Factor 1 (HIF1A) (AID 2282951)
Conditions: HepG2 Attagene cis-factorial HIF1a reporter transcription; actives raise or lower the signal
Active and inactive are the calls of the source. Rule for the calls: active = hit-call score of the fitted dose curve at least 0.9, where 1 is the maximum; inactive = score below 0.9.
// classify into YES for active, NO for inactive

Examples from the recorded data:
| Test Smiles | Classification |
| --- | --- |
| OCc1ccccc1 | NO |
| C=CN1CCCC1=O | NO |
| C=CCc1cc(S(=O)(=O)c2ccc(O)c(CC=C)c2)ccc1O | NO |
| OCC(CO)(CO)CO | NO |
| CC(=O)c1ccccc1 | NO |
| OC[C@H]1O[C@@](CO)(O[C@H]2O[C@H](CO)[C@@H](O)[C@H](O)[C@H]2O)[C@@H](O)[C@@H]1O | NO |

Kindly review the next molecule as well.
Enquiry: What did the test return for CCCOc1ccc(S(=O)(=O)N2CCN(CC)CC2)cc1-c1nc2c(CC)n(Cc3ccccn3)nc2c(=O)[nH]1 ?
Return: YES

* * *

Assay: LTEA_HepaRG_LDH_cytotoxicity: Cytotoxicity Assessment in the Life Technologies and Expression Analysis (LTEA) Assay (AID 2283563)
Activity calls are given as the source filed them. How the source made its calls: active means hit-call score of the fitted dose curve at least 0.9, where 1 is the maximum; inconclusive means response in the unintended direction; inactive means score below 0.9.
// classify into yes (active), no (inactive)

| Test Smiles | Classification |
| --- | --- |
| COS(C)(=O)=O | no |
| CCn1nc(C)c2c1C(=O)NCC(c1ccc(O)cc1)=N2 | no |
| NNC(=O)c1ccncc1 | no |
| CCCCCCCCCCCCCCCCOS(=O)(=O)O | no |
| Cc1nccn1-c1ccc(Sc2cccc(C3(C(N)=O)CCOCC3)c2)cc1 | yes |
| CCCCOC(=O)c1ccccc1 | no |

Enquiry: What did the test return for C[C@@H](Oc1ccc(CNC(=O)c2cccnc2Oc2ccc3c(c2)OCO3)c(F)c1)C(=O)O ?
Return: no

* * *

Molecular target: Adra2b (gene 24174)
Experiment: NVS_GPCR_rmAdra2B: NovaScreen (NVS) G Protein-Coupled Receptor Assay for hybird cells Adrenergic, Alpha 2B Receptor (Adra2B) (AID 2283306)
Inconclusive results are not listed. Calls of active or inactive are those of the source. The calls were made as follows: active = hit-call score of the fitted dose curve at least 0.9, where 1 is the maximum; inconclusive = response in the unintended direction; inactive = score below 0.9.
// classify into active, inactive

Enquiry: What did the test return for c1ccc(C(O[C@@H]2CCCN(CCc3ccc4c(c3)OCO4)C2)c2ccccc2)cc1 ?
Return: active

* * *

Test: ATG_M_61_CIS: Attagene CIS-FACTORIAL HepG2 Assay for M61 Transcription Factor (Internal Marker) (AID 2282937)
Conditions: HepG2 Attagene CIS-FACTORIAL M61 internal marker reporter; actives raise or lower the signal
Activity calls are given as the source filed them. Rule for the calls: active = hit-call score of the fitted dose curve at least 0.9, where 1 is the maximum; inactive = score below 0.9.
// classify into label 1 for active, label 0 for inactive

Examples from the recorded data:
| Test Smiles | Classification |
| --- | --- |
| CCCCN1C(=O)[C@@H]([C@H](O)C2CCCCC2)NC(=O)C12CCN(Cc1ccc(Oc3ccc(C(=O)O)cc3)cc1)CC2 | label 0 |
| O=S(=O)(O)CCC(F)(F)C(F)(F)C(F)(F)C(F)(F)C(F)(F)C(F)(F)F | label 0 |
| CCCOc1ccc(S(=O)(=O)N2CCN(CC)CC2)cc1-c1nc2c(CC)n(Cc3ccccn3)nc2c(=O)[nH]1 | label 0 |
| CC(=O)c1ccccc1 | label 0 |

Enquiry: What did the test return for OC[C@H]1O[C@@H]2O[C@H]3[C@H](O)[C@@H](O)[C@@H](O[C@H]4[C@H](O)[C@@H](O)[C@@H](O[C@H]5[C@H](O)[C@@H](O)[C@@H](O[C@H]6[C@H](O)[C@@H](O)[C@@H](O[C@H]7[C@H](O)[C@@H](O)[C@@H](O[C@H]1[C@H](O)[C@H]2O)O[C@@H]7CO)O[C@@H]6CO)O[C@@H]5CO)O[C@@H]4CO)O[C@@H]3CO ?
Return: label 0

Enquiry: What did the test return for CCCCCCOC(=O)CC(CC(=O)OCCCCCC)(OC(=O)CCC)C(=O)OCCCCCC ?
Return: label 0

Enquiry: What did the test return for O=C(O)c1cccc(C(=O)O)c1 ?
Return: label 0

Enquiry: What did the test return for C=CCc1cc(S(=O)(=O)c2ccc(O)c(CC=C)c2)ccc1O ?
Return: label 0

Enquiry: What did the test return for CCCCCCCCCCCCCCCCOS(=O)(=O)O ?
Return: label 0

Enquiry: What did the test return for CCc1ccc(O)c(C(C)(C)C)c1 ?
Return: label 0

Enquiry: What did the test return for Cc1nc(-c2ccccn2)ncc1C(=O)Nn1cc(C)c2cc(F)ccc21 ?
Return: label 0

Enquiry: What did the test return for C[C@@H](Oc1ccc(CNC(=O)c2cccnc2Oc2ccc3c(c2)OCO3)c(F)c1)C(=O)O ?
Return: label 0

Enquiry: What did the test return for CC1(C)C(=O)N(Cl)C(=O)N1Cl ?
Return: label 0

Enquiry: What did the test return for O=C(O)[C@H](O)[C@@H](O)C(=O)O ?
Return: label 0

Enquiry: What did the test return for COc1cc2c(c(OC)c1OC)-c1ccc(OC)c(=O)cc1[C@@H](NC(C)=O)CC2 ?
Return: label 0

Enquiry: What did the test return for COc1cc(C(C)C)c2c(c1)S(=O)(=O)N(COc1cc(=O)n3cccc(OCCN4CCCCC4)c3n1)C2=O ?
Return: label 1

* * *

Test: APR_HepG2_p53Act_72hr: Apredica 72-hour HepG2 Assay for p53 Activation (AID 2282923);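 note: average cellular p53 protein immunofluorescence intensity in HepG2 cells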
Conditions: high-content imaging, actives raise or lower the signal
Active and inactive are the calls of the source. How the source made its calls: active means hit-call score of the fitted dose curve at least 0.9, where 1 is the maximum; inactive means score below 0.9.
// classify into y = active, n = inactive

Examples from the recorded data:
| Compound | Classification |
| --- | --- |
| NNC(=O)c1ccncc1 | n |
| OCCOCCOCCO | n |
| CCOC(N)=O | n |
| CCCCCCCC1CCC(=O)O1 (stereo not drawn) | n |
| CC1(C)C(=O)N(Cl)C(=O)N1Cl | n |

Enquiry: What did the test return for c1ccc(C(O[C@@H]2CCCN(CCc3ccc4c(c3)OCO4)C2)c2ccccc2)cc1 ?
Return: y

Enquiry: What did the test return for O=S1(=O)CCCO1 ?
Return: n

Enquiry: What did the test return for c1ccc2cc3ccccc3cc2c1 ?
Return: n
